Structures can show the parent of a compound that is named as a salt.
observation-type: melting point (°C)
API: value field is a number in °C; no unit string.

Task: Find the recorded melting point belonging to CC(C)NCCOc1cc(F)cc(S(C)(=O)=O)c1 (as salt: hydrochloric acid salt) and report it.
Output: 173

Task: Find the recorded melting point belonging to CS(=O)(=O)c1cc(F)cc(OCCNC2CCCC2)c1 (as salt: hydrochloric acid salt) and report it.
Output: 207.5

Task: Find the recorded melting point belonging to CCCCNCCOc1cc(F)cc(S(C)(=O)=O)c1 (as salt: hydrochloric acid salt) and report it.
Output: 204

Task: Find the recorded melting point belonging to CCN(CC)CCOc1cc(F)cc(S(C)(=O)=O)c1 (as salt: hydrochloric acid salt) and report it.
Output: 172.3

Task: Find the recorded melting point belonging to CS(=O)(=O)c1cc(F)cc(OCCN2CCCCC2)c1 (as salt: hydrochloric acid salt) and report it.
Output: 194.6

* * *

# Test system: drug-naive rats
# protocol: Effects on spontaneous locomotion (locomotor activity in drug-naive rats)
# Format: in vivo, rat
# reported-conditions: 33 μmol/kg, recorded for 60 minutes immediately after drug administration
Record form. Attribute: Locomotor activity. Fill in for each entry.
API: value field is a number in counts/60 min; no unit string.

Task: Find the recorded Locomotor activity belonging to `CCCCNCCOc1cc(F)cc(S(C)(=O)=O)c1` and report it.
Output: 6325

Task: Find the recorded Locomotor activity belonging to `CS(=O)(=O)c1cc(F)cc(OCCN2CCCCC2)c1` and report it.
Output: 8144

Task: Find the recorded Locomotor activity belonging to `CCCNCCOc1cc(Cl)cc(S(C)(=O)=O)c1` and report it.
Output: 7826

Task: Find the recorded Locomotor activity belonging to `CCCNCCOc1cc(F)cc(S(C)(=O)=O)c1` and report it.
Output: 6025

Task: Find the recorded Locomotor activity belonging to `CCCN(C)CCOc1cc(F)cc(S(C)(=O)=O)c1` and report it.
Output: 12829

Task: Find the recorded Locomotor activity belonging to `CS(=O)(=O)c1cc(F)cc(OCCNC2CCC2)c1` and report it.
Output: 12872

* * *

Structures can show the parent of a compound that is named as a salt.
observation-type: melting point (°C)
API: value field is a number in °C; no unit string.

Task: Find the recorded melting point belonging to CCC(C)(C)NCCOc1cc(F)cc(S(C)(=O)=O)c1 (as salt: hydrochloric acid salt) and report it.
Output: 190.2

Task: Find the recorded melting point belonging to CS(=O)(=O)c1cc(F)cc(OCCNC2CCC2)c1 (as salt: hydrochloric acid salt) and report it.
Output: 202

Task: Find the recorded melting point belonging to CCC(C)NCCOc1cc(F)cc(S(C)(=O)=O)c1 (stereo not shown) (as salt: hydrochloric acid salt) and report it.
Output: 166.5

* * *

Record form. Attribute: Locomotor activity. Fill in for each entry.
# System: drug-naive rats
# protocol: Effects on spontaneous locomotion (locomotor activity in drug-naive rats)
# Format: in vivo, rat
# reported-conditions: 11 μmol/kg, recorded for 60 minutes immediately after drug administration
# Method: Prior art dopamine receptor antagonists are known to induce profound decrease in locomotor activity (catalepsy). Behavioural activity is measured using eight Digiscan activity monitors (RXYZM (16) TAO, Omnitech Electronics, Columbus, Ohio, USA), connected to an Omnitech Digiscan analyzer and an Apple Macintosh computer equipped with a digital interface board (NB DIO-24, National Instruments, USA). […]
API: value field is a number in counts/60 min; no unit string.

Task: Find the recorded Locomotor activity belonging to `CCCCNCCOc1cc(F)cc(S(C)(=O)=O)c1` and report it.
Output: 8617

Task: Find the recorded Locomotor activity belonging to `CCCNCCOc1cc(Cl)cc(S(C)(=O)=O)c1` and report it.
Output: 12740

Task: Find the recorded Locomotor activity belonging to `CCCNCCOc1cc(F)cc(S(C)(=O)=O)c1` and report it.
Output: 7325

Task: Find the recorded Locomotor activity belonging to `CS(=O)(=O)c1cc(F)cc(OCCN2CCCCC2)c1` and report it.
Output: 9344

Task: Find the recorded Locomotor activity belonging to `CS(=O)(=O)c1cc(F)cc(OCCNC2CCC2)c1` and report it.
Output: 12888

Task: Find the recorded Locomotor activity belonging to `CCCN(C)CCOc1cc(F)cc(S(C)(=O)=O)c1` and report it.
Output: 10025

* * *

Record form. Attribute: ED50. Fill in for each entry.
# Tested on: DOPAC (3,4-dihydroxyphenylacetic acid) in the rat striatum
# protocol: Increase of DOPAC (3,4-dihydroxyphenylacetic acid) in the rat striatum after systemic administration
# Type: in vivo
# reported-conditions: sc, estimated ED50 on increase of DOPAC in rat striatum, dose range 0-100 μmol/kg s.c., curve fitting
API: value field is a number in µmol/kg; no unit string.

Task: Give recorded ED50 with DOPAC (3,4-dihydroxyphenylacetic acid) in the rat striatum for the following compound: `CCCNCCOc1cc(F)cc(S(C)(=O)=O)c1`
Output: 8.5

Task: Give recorded ED50 with DOPAC (3,4-dihydroxyphenylacetic acid) in the rat striatum for the following compound: `CCCN(C)CCOc1cc(F)cc(S(C)(=O)=O)c1`
Output: 28.1

Task: Give recorded ED50 with DOPAC (3,4-dihydroxyphenylacetic acid) in the rat striatum for the following compound: `CCCCNCCOc1cc(F)cc(S(C)(=O)=O)c1`
Output: 4.2

Task: Give recorded ED50 with DOPAC (3,4-dihydroxyphenylacetic acid) in the rat striatum for the following compound: `CS(=O)(=O)c1cc(F)cc(OCCNC2CCC2)c1`
Output: 36

Task: Give recorded ED50 with DOPAC (3,4-dihydroxyphenylacetic acid) in the rat striatum for the following compound: `CCCNCCOc1cc(Cl)cc(S(C)(=O)=O)c1`
Output: 10.5

Task: Give recorded ED50 with DOPAC (3,4-dihydroxyphenylacetic acid) in the rat striatum for the following compound: `CS(=O)(=O)c1cc(F)cc(OCCN2CCCCC2)c1`
Output: 14.5
